Origin of values: ChEMBL document CHEMBL4017541

Tested on: Klebsiella pneumoniae
assay.overview: Antimicrobial activity against Klebsiella pneumoniae ATCC 13383 after 16 hrs
Type: functional
condition.context: ATCC 13383, 16 h
observable: MIC (µg/mL)
Give just the number in µg/mL; leave the unit off.

Example entries begin here.
molecule	obs.value
CCCCCCCCCCCC(=O)N[C@@H](CCCCN)CN1CC(=O)N(c2ccc(OC)cc2)C1=O	12.5
CCCCCCCCCCCC(=O)N[C@@H](CCCCN)CN1CC(=O)N(CCCC)C1=O	12.5
CCCCCCCCCC(=O)N[C@@H](CCCCN)CN1CC(=O)N(C2CCCCC2)C1=O	25
O=C1CN(/N=C/c2ccc([N+](=O)[O-])o2)C(=O)N1 [NITROFURANTOIN]	25
CCCCCCCCCCCC(=O)N[C@@H](CCCCN)CN1CC(=O)N(c2cccc(Cl)c2)C1=O	0.78

Qu. Give its MIC value. Item: "CCCCCCCCCC(=O)N[C@@H](CCCCN)CN1CC(=O)N(C23CC4CC(CC(C4)C2)C3)C1=O"
Ans. 6.25

Qu. Any idea what MIC was measured for "CCCCCCCCCCCCCC(=O)N[C@@H](CCCCN)CN1CC(=O)N(CC)C1=O" ?
Ans. 6.25

Qu. So what's the measured MIC for this one? "CCCCCCCCCCCCCC(=O)N[C@@H](CCCCN)CN1CC(=O)N(CCCC)C1=O"
Ans. 12.5

Qu. Data request, read-out MIC, for "CCCCCCCCCC(=O)N[C@@H](CCCCN)CN1CC(=O)N(c2cccc(Cl)c2)C1=O"
Ans. 6.25

Qu. Consider the molecule "CCCCCCCCCCCCCC(=O)N[C@@H](CCCCN)CN1CC(=O)N(C2CCCCC2)C1=O" and give its measured MIC.
Ans. 6.25

Qu. Query: MIC; subject: "CCCCCCCCCCCCCCCC(=O)N[C@@H](CCCCN)CN1CC(=O)N(CC)C1=O"
Ans. 12.5

Qu. Given "CCCCCCCCCCCCCC(=O)N[C@@H](CCCCN)CN1CC(=O)N(c2ccc(OC)cc2)C1=O" , state its recorded MIC.
Ans. 25
